B1: TRIM43 (parent)
chain: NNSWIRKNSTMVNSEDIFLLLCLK

variants of: B1; test: protein stability index of a GFP-peptide fusion (GPS, HEK-293T) (PSI 1-6); higher = more stable; conditions: c terminus: a fixed tail appended;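 further: lentivirally expressed fusions sorted by FACS into six bins by GFP to DsRed ratio, PSI derived from sequencing read proportions per bin multiplied by bin number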
Assign class by protein stability index: not lower than 3 means 1.0; lower than 3 means 0.0.

Use these answered entries as a reference point.
INSERT INTO assay_data (mutant_code, label) VALUES
  ('S3D', 0.0),
  ('N1R', 0.0),
  ('R6F', 1.0),
  ('N8L', 0.0),
  ('V12H', 0.0),
  ('S3P', 0.0),
  ('L21Y', 0.0),
  ('D16F', 0.0),
  ('L23D', 0.0),
  ('L21P', 0.0);

// query Kindly determine if protein stability index recorded for T10F is above or exactly 3.
// result 1.0

// query Kindly determine if protein stability index recorded for I5T is above or exactly 3.
// result 1.0

// query Kindly determine if protein stability index recorded for L23G is above or exactly 3.
// result 0.0

// query Kindly determine if protein stability index recorded for C22L is above or exactly 3.
// result 1.0

// query Kindly determine if protein stability index recorded for K24A is above or exactly 3.
// result 1.0

// query Kindly determine if protein stability index recorded for K24L is above or exactly 3.
// result 0.0

// query Kindly determine if protein stability index recorded for N1Y is above or exactly 3.
// result 0.0

// query Kindly determine if protein stability index recorded for L21F is above or exactly 3.
// result 0.0

// query Kindly determine if protein stability index recorded for I5P is above or exactly 3.
// result 1.0

// query Kindly determine if protein stability index recorded for N1I is above or exactly 3.
// result 0.0

// query Kindly determine if protein stability index recorded for D16W is above or exactly 3.
// result 1.0

// query Kindly determine if protein stability index recorded for K7L is above or exactly 3.
// result 0.0

// query Kindly determine if protein stability index recorded for V12Y is above or exactly 3.
// result 1.0
